Data origin: ChEMBL document CHEMBL5537210

Test system: BMDM
Assay: Induction of cytokine production in wild type C57BL/6 mouse BMDM cells assessed as IL-1beta secretion at 0.1 to 1 nmol incubated for 24 hrs by ELISA method
Assay type: functional, cell-based
Settings: dose 0.1-1 nmol
Activity calls are given as the source filed them. The rule behind the calls is not given here.
Select the correct class. Options are class 1 = active, class 0 = inactive and nothing else.

Past entries and their recorded results:
GIVEN_SMILES: CCCCCCCCOc1cc(OCCCCCCCC)cc(-c2cn(C[C@H]3O[C@H](O[C@H]4O[C@H](Cn5cc(-c6cc(OCCCCCCCC)cc(OCCCCCCCC)c6)nn5)[C@@H](O)[C@H](O)[C@H]4O)[C@H](O)[C@@H](O)[C@@H]3O)nn2)c1
QUALITATIVE_LABEL: class 0
//
GIVEN_SMILES: CCCCCCCCOc1ccc(-c2cn(C[C@H]3O[C@H](O[C@H]4O[C@H](Cn5cc(-c6ccc(OCCCCCCCC)c(OCCCCCCCC)c6)nn5)[C@@H](O)[C@H](O)[C@H]4O)[C@H](O)[C@@H](O)[C@@H]3O)nn2)cc1OCCCCCCCC
QUALITATIVE_LABEL: class 0

Which outcome was assigned to CCCCCCCCOc1ccc(-c2cn(C[C@H]3O[C@H](O[C@H]4O[C@H](Cn5cc(-c6ccc(OCCCCCCCC)cc6OCCCCCCCC)nn5)[C@@H](O)[C@H](O)[C@H]4O)[C@H](O)[C@@H](O)[C@@H]3O)nn2)c(OCCCCCCCC)c1 in this test? class 1

Which outcome was assigned to CCCCCCCCOc1cccc(-c2cn(C[C@H]3O[C@H](O[C@H]4O[C@H](Cn5cc(-c6cccc(OCCCCCCCC)c6OCCCCCCCC)nn5)[C@@H](O)[C@H](O)[C@H]4O)[C@H](O)[C@@H](O)[C@@H]3O)nn2)c1OCCCCCCCC in this test? class 1

---

Test system: BMDM
Assay: Induction of cytokine production in wild type C57BL/6 mouse BMDM cells assessed as IL-6 secretion at 0.1 to 1 nmol incubated for 24 hrs by ELISA method
Type: functional, cell-based
Details: dose 0.1-1 nmol
Activity calls are given as the source filed them. No cut-off for these calls is given here.
Select the correct class. Options are Yes (active), No (inactive) and nothing else.

Past entries and their recorded results:
GIVEN_SMILES: CCCCCCCCOc1ccc(-c2cn(C[C@H]3O[C@H](O[C@H]4O[C@H](Cn5cc(-c6ccc(OCCCCCCCC)cc6OCCCCCCCC)nn5)[C@@H](O)[C@H](O)[C@H]4O)[C@H](O)[C@@H](O)[C@@H]3O)nn2)c(OCCCCCCCC)c1
QUALITATIVE_LABEL: Yes
--
GIVEN_SMILES: CCCCCCCCOc1cccc(-c2cn(C[C@H]3O[C@H](O[C@H]4O[C@H](Cn5cc(-c6cccc(OCCCCCCCC)c6OCCCCCCCC)nn5)[C@@H](O)[C@H](O)[C@H]4O)[C@H](O)[C@@H](O)[C@@H]3O)nn2)c1OCCCCCCCC
QUALITATIVE_LABEL: Yes
--
GIVEN_SMILES: CCCCCCCCOc1cc(OCCCCCCCC)cc(-c2cn(C[C@H]3O[C@H](O[C@H]4O[C@H](Cn5cc(-c6cc(OCCCCCCCC)cc(OCCCCCCCC)c6)nn5)[C@@H](O)[C@H](O)[C@H]4O)[C@H](O)[C@@H](O)[C@@H]3O)nn2)c1
QUALITATIVE_LABEL: Yes

Which outcome was assigned to CCCCCCCCOc1ccc(-c2cn(C[C@H]3O[C@H](O[C@H]4O[C@H](Cn5cc(-c6ccc(OCCCCCCCC)c(OCCCCCCCC)c6)nn5)[C@@H](O)[C@H](O)[C@H]4O)[C@H](O)[C@@H](O)[C@@H]3O)nn2)cc1OCCCCCCCC in this test? No
